biological target: Kv1.5 (Homo sapiens, UniProt P22460); assay: Kv1.5 Patch Clamp EP (whole cell patch clamp; single point at 1 μM and IC50); conditions: concentration response
Sequence (P22460 whole entry): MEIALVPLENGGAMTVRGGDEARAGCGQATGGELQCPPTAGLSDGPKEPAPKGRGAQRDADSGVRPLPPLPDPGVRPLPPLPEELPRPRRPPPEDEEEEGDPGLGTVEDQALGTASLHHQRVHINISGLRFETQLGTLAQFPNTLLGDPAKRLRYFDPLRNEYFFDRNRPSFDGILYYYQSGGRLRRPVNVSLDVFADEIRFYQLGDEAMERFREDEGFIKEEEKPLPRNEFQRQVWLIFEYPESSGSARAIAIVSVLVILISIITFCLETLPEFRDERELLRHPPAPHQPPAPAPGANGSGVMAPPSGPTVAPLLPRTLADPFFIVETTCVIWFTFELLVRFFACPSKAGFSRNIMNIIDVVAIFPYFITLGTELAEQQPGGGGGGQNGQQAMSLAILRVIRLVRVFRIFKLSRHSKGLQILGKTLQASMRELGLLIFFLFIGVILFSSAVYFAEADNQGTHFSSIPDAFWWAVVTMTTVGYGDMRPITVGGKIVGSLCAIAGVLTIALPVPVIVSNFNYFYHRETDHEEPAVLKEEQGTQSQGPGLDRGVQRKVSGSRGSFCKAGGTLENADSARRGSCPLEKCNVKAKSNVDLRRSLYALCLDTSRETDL
pIC50: −log10 of the molar value.
TEST READOUT: pIC50

Worked cases, pIC50 given:
[[record]]
compound = "COc1ccc(CCN2C(=O)C3(CCN(C(N)=O)CC3)N(C)[C@H]2c2ccc(C3CC3)cc2)cc1"
test_readout = "pIC50"
result_value = 6.40

[[record]]
compound = "COc1ccc(CCN2C(=O)C3(CCN(C(N)=O)CC3)N(C)[C@@H]2c2ccc(C3CC3)cc2)cc1"
test_readout = "pIC50"
result_value = 6.49


[I] CNC(=O)N1CCC2(CC1)C(=O)N(CCc1ccc(OC)cc1)C(c1ccc(C3CC3)cc1)N2C (stereo not shown)
[II] COc1ccc(CCN2C(=O)C3(CCN(C(=O)N4CCCC4)CC3)N(C)C2c2ccc(C3CC3)cc2)cc1 (stereo not shown)
Short answer wanted: higher pIC50, I or II ? Write down the label of the entry you select.
II
(II: 6.74, I: 6.46)

src = patent US20070299072A1
